Hello, the source for this data is patent US20260347449, in case you need it.

molecular target: human C3 (human, UniProt P01024); assay: BLI
Readout kind: Kd (nM)
Give bare numbers, in nM.

Sample answers from the record:
Binder	Kd [nM]
C3N10.3 (antibody, V domains shown) VH: EVQLVESGGGLVQAGGSLRLACAASGLTFSPYAMGWFRQAPGKEREFVAGIRWISGNPYYADSVKGRFTISRDNSKNTLYLQMNSLRPEDTAVYSCAAAPLTRSYDYWGQGTLVTVSS	5.32
C3S3.2 (antibody, V domains shown) VH: EVQLVESGGGLVQAGGSLRLSCAASGTIFSRNYMGWYRQAPGKERELVAGIGYGSSTNYADSVKGRFTISRDNSKNTLYLQMNSLRPEDTAVYYCAAVPTYRPYYFYWGQGTLVTVSS	5.83
C3S3 (antibody, V domains shown) VH: QVQLQESGGGLVQAGGSLRLSCAASGTIFSRNYMGWYRQAPGKERELVAGIGYGSSTNYADSVKGRFTISRDNAKNTVYLQMNSLKPEDTAVYYCAAVPTYRPYYFYWGQGTQVTVSS	4.97

# evaluate next
Data request: Name the recorded Kd for C3N10 (antibody, V domains shown) VH: DVQLVESGGGLVQAGGSLRLACAASGLTFSPYAMGWFRQAPGKEREFVAGIRWISGNPYYADSVKGRFTISRDNAKNTVYLQMNSLKPEDTAVYSCAAAPLTRSYDYWGQGTQVTVSS .
Data returned: 3.64
